experiment: Dynamic surface tension versus compressed surface area, modified Wilhelmy balance-Langmuir trough; type: physicochemical; details: maximum recorded during seven complete cycles; 675 ug phospholipid on trough at 445 sq. cm; peptide 0.5 mg/ml (2% of solids) in DPPC:PG:PA lipids
No end group written: not given here.
Assignment: determine reported Surface tension, Maximum for the given substances.
One number for each entry, in dynes/cm.

The following substances have reported results that may help.
| SUBSTANCE | DATA_VALUE |
| --- | --- |
| SP-B(27-78): synthesized SP-B peptide fragment, position 27-78, 52 amino acids (LAVAVAQVCRVVPLVAGGICQCLAERYSVILLDTLLGRMLPQLVCRLVLRCS; ends and bridges not checked; cysteine pairing not given here; UniProt P07988 227-278, looked up, fragment) | 49.5 |
| SP-B(12-60): synthesized SP-B peptide fragment, position 12-60, 49 amino acids (RALIKRIQAMIPKGALAVAVAQVCRVVPLVAGGICQCLAERYSVILLDT; ends and bridges not checked; cysteine pairing not given here; UniProt P07988 212-260, looked up, fragment) | 49.0 |
| SP-B(30-60): synthesized SP-B peptide fragment, position 30-60 (AVAQVCRVVPLVAGGICQCLAERYSVILLDT; ends and bridges not checked; cysteine pairing not given here; UniProt P07988 230-260, looked up, fragment) | 52.0 |

Ask | Which Surface tension, Maximum reading was recorded for the substance SP-B(1-60): synthesized SP-B peptide fragment, position 1-60, 60 amino acids (FPIPLPYCWLCRALIKRIQAMIPKGALAVAVAQVCRVVPLVAGGICQCLAERYSVILLDT; ends and bridges not checked; cysteine pairing not given here; UniProt P07988 201-260, looked up, fragment) ?
Reply | 47.5

====

Experiment: Pulsating bubble surfactometer (PBS), surface tension at air-aqueous interface
Type: physicochemical
Conditions: after 5 minutes pulsation (100 cycles), 20 cycles/minute, 37 C, 1 mg/ml phospholipid in 0.15 M NaCl; peptide 2% of phospholipids
Procedure: The Pulsating Bubble Surfactometer (PBS). The PBS equipment (Electrtonetics, Buffalo, N.Y.) used was essentially equivalent to that described in detail by G. Enhorning, J. Appld, Physiol. 43, 198-203, (1977). […] The pressure drop across the air-water interface was measured during pulsation by a pressure transducer, and the corresponding surface tension determined through the application of Young's law and the Laplace equation. […]
No end group written: not given here.
MEASUREMENT_NAME: Minimum Surface Tension (dyne/cm)
Numbers only, in dyne/cm.

The following substances have reported results that may help.
| SUBSTANCE | RESULT_UNITS | DATA_VALUE |
| --- | --- | --- |
| SP-B(27-78): synthesized SP-B peptide fragment, position 27-78, 52 amino acids (LAVAVAQVCRVVPLVAGGICQCLAERYSVILLDTLLGRMLPQLVCRLVLRCS; ends and bridges not checked; cysteine pairing not given here; UniProt P07988 227-278, looked up, fragment) | dyne/cm | 4.7 |
| SP-B(30-60): synthesized SP-B peptide fragment, position 30-60 (AVAQVCRVVPLVAGGICQCLAERYSVILLDT; ends and bridges not checked; cysteine pairing not given here; UniProt P07988 230-260, looked up, fragment) | dyne/cm | 16.9 |
| SP-B(12-60): synthesized SP-B peptide fragment, position 12-60, 49 amino acids (RALIKRIQAMIPKGALAVAVAQVCRVVPLVAGGICQCLAERYSVILLDT; ends and bridges not checked; cysteine pairing not given here; UniProt P07988 212-260, looked up, fragment) | dyne/cm | 10.3 |

Query substance follows.
Ask | Which Minimum Surface Tension reading was recorded for the substance SP-B(1-60): synthesized SP-B peptide fragment, position 1-60, 60 amino acids (FPIPLPYCWLCRALIKRIQAMIPKGALAVAVAQVCRVVPLVAGGICQCLAERYSVILLDT; ends and bridges not checked; cysteine pairing not given here; UniProt P07988 201-260, looked up, fragment) ?
Reply | 7.2
